# systemTested: GST tagged LXRalpha LBD (ligand binding domain) (Homo sapiens, UniProt Q13133)
# Sequence (Q13133 209-447 limits assumed): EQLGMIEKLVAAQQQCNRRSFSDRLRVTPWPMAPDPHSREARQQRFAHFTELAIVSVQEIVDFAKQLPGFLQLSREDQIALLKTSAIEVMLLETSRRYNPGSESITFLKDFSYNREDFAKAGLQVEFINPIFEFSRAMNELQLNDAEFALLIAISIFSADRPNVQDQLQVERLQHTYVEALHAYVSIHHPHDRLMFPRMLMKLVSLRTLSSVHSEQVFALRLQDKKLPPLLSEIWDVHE
# testDescription: LanthaScreen TR-FRET Liver X Receptor Coactivator Assay, LXR alpha-LBD
# experimentalSetup: Inflection Point (potency), co-activator recruitment, relative to reference T0901317; read-out: LXR alpha IP
readoutName: EC50 (µM)

CN(C)C(=O)c1ccc(N2CCC(C3CCN(C(=O)C(C)(C)c4ccccc4Cl)CC3)CC2)cc1Cl [Example A-83]; 0.594
CN(C)C(=O)c1ccc(N2CCC(C3CCN(C(=O)C(O)(c4cccc(Cl)c4)C(F)(F)F)CC3)CC2)cc1Cl (centres unmarked) [Example A-50]; 1.01
CN(Cc1ccon1)C(=O)c1ccc(N2CCC(C3CCN(C(=O)c4c(F)cccc4F)CC3)CC2)cc1Cl [Example E-16]; 1.7
C=C(C)CC(O)(C(=O)N1CCC(C2CCN(c3ccc(C(=O)N(C)C)c(Cl)c3)CC2)CC1)C(F)(F)F (centres unmarked) [Example A-56]; 1.91
CN(C(=O)c1ccc(N2CCC(C3CCN(C(=O)[C@](O)(c4ccccc4)C(F)(F)F)CC3)CC2)cc1Cl)C1CCOC1 (some centres unmarked) [Example E-53]; 1.6

(a) CN(C)C(=O)c1ccc(N2CCC(C3CCN(C(=O)C4(c5ccccc5)CC4)CC3)CC2)cc1Cl [Example A-39]
(b) CN(C)C(=O)c1ccc(N2CCC(C3CCN(C(=O)C(O)(c4ccccc4)C(F)(F)C(F)(F)C(F)(F)F)CC3)CC2)cc1Cl (centres unmarked) [Example A-55]
(c) Cc1nc(N2CCC(C3CCN(C(=O)C(O)(C(C)C)C(F)(F)F)CC3)CC2)ccc1C(=O)N(C)C (centres unmarked) [Example C-1]
Given 3 compounds, produce a descending ranking by EC50. Order the labels as requested and give them as your answer.
a, b, c

(1) CCCN(C)C(=O)c1ccc(N2CCC(C3CCN(C(=O)[C@](O)(c4ccccc4)C(F)(F)F)CC3)CC2)cc1Cl [Example E-61]
(2) CN(C)C(=O)c1ccc(N2CCC(C3CCN(C(=O)C4(c5ccccc5Cl)CCCC4)CC3)CC2)cc1Cl [Example A-94]
Smaller EC50 value, 1 vs 2 ? Your choice should be expressed through its label.
2
(2: 0.25 µM, 1: 1.28 µM)

(P) CC(C)C(O)(C(=O)N1CCC(C2CCN(c3ccc(C(=O)N(C)C)c(Cl)n3)CC2)CC1)C1CC1 (centres unmarked) [Example B-3]
(Q) CN(C)C(=O)c1ccc(N2CCC(C3CCN(C(=O)C(C)(C)C(F)(F)F)CC3)CC2)cc1Cl [Example A-41]
Compare P and Q by numeric EC50 and name the larger one. Your choice should be expressed through its label.
Q
(Q: 3.39 µM, P: 1.79 µM)

(I) CN(C)C(=O)c1ccc(N2CCC(C3CCN(C(=O)C(C)(C)c4ccc(Cl)cc4)CC3)CC2)cc1Cl [Example A-44]
(II) CN(C)C(=O)c1ccc(N2CCC(C3CCN(C(=O)C4(C(F)(F)F)CCC4)CC3)CC2)cc1Cl [Example A-29]
Smaller EC50 value, I vs II ? Your choice should be expressed through its label.
I
(I: 1.98 µM, II: 3.58 µM)
